# EXPERIMENTAL_SYSTEM: Carbonic anhydrase 2 (Homo sapiens, UniProt P00918)
# ASSAY_METHOD_TEXT: Inhibition of recombinant human CA2 preincubated for 15 mins by phenol red dye-based stopped-flow CO2 hydration assay
MEASURED_ATTRIBUTE: Ki

Answered cases to consult:
>>> reported_measurement("O=C(Nc1ccc(Cl)cc1C(=O)O)c1ccc2c(c1)C(=O)N(Cc1ccccc1)C2=O")
"> 100 µM"
>>> reported_measurement("COc1ccc(NC(=O)c2ccc3c(c2)C(=O)N(CCc2ccccc2)C3=O)c(C(=O)O)c1")
"> 100 µM"

With those in mind, consider the next compound.
**Query** Requested read-out: Ki. Entry: "COc1ccc(NC(=O)c2ccc3c(c2)C(=O)N(c2ccccc2)C3=O)c(C(=O)O)c1"
**Result** > 100 µM
